study.system: T1, CRBN, Q96SW2;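 note: pooled lentiviral library of zinc finger degron-EGFP fusions in mCherry-positive Jurkat cells, FACS-sorted after compound exposure, with degron abundance counted by next-generation sequencing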
T1 chain: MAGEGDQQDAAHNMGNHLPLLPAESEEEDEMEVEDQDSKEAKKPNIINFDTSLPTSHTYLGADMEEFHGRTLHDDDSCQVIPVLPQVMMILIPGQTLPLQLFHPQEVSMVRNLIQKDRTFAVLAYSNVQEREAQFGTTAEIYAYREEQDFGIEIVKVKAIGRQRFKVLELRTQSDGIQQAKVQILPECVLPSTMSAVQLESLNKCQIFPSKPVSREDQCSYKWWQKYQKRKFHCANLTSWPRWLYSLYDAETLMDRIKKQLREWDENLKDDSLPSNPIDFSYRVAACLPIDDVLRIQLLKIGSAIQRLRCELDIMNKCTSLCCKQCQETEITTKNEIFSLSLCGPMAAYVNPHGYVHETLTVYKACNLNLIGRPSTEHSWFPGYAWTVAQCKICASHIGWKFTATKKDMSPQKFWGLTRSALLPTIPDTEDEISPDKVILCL
method: log2 fold change of degron read counts, EGFP-low vs EGFP+ sorted cells (limma voom), compound-induced degradation; higher = more compound-induced degradation of the degron-EGFP fusion; degrons are variants of IKZF1/3 zinc finger 2; compound dose not given here
details: Jurkat; 18 h; compound: compound 22 (5-morpholino-thalidomide)
In all, about 8,300 sequences were measured (“log2 fold change of degron read counts, EGFP-low vs EGFP+ sorted cells (limma voom), compound-induced degradation”: median about -1.1, highest 2% from about 3.2 on). Only a selection was taken, and the highest values are over-represented in it overall.
Exercise: state measured log2 fold change of degron read counts for each of the sequences provided.
Please state the value as a number alone, without comment.

# log2 fold change of degron read counts of LSCEICGFICTQKGNLLRHIKL [46L_47S_49E_50I_52G_53F_54I_55C_67L_, Q9UKT9] = 0.753

# log2 fold change of degron read counts of FTCPICGAPFTQKGNLLRHIKL [46F_47T_49P_50I_52G_53A_54P_55F_67L_, Q9UKT9] = 3.44

# log2 fold change of degron read counts of FWCPICGAPFTQKGNLLRHIKL [46F_47W_49P_50I_52G_53A_54P_55F_67L_, Q9UKT9] = 3.35

# log2 fold change of degron read counts of FGCPICGADFTQKGNLLRHIKL [46F_47G_49P_50I_52G_53A_54D_55F_67L_, Q9UKT9] = 0.634

# log2 fold change of degron read counts of FWCPICGAMFTQKGNLLRHIKL [46F_47W_49P_50I_52G_53A_54M_55F_67L_, Q9UKT9] = 2.77

# log2 fold change of degron read counts of FKCDQCGACFTQKGNLLRHIKL [46F_47K_49D_50Q_52G_53A_54C_55F_67L_, Q9UKT9] = -3.31

# log2 fold change of degron read counts of FLCEICGRNFTQKGNLLRHIKL [46F_47L_49E_50I_52G_53R_54N_55F_67L_, Q9UKT9] = -2.99
